# target_entity: T1, EBOV GP (recombinant, full-length extracellular domain) (EBOV (Ebola Zaire), UniProt Q05320 33-650)
# T1 chain: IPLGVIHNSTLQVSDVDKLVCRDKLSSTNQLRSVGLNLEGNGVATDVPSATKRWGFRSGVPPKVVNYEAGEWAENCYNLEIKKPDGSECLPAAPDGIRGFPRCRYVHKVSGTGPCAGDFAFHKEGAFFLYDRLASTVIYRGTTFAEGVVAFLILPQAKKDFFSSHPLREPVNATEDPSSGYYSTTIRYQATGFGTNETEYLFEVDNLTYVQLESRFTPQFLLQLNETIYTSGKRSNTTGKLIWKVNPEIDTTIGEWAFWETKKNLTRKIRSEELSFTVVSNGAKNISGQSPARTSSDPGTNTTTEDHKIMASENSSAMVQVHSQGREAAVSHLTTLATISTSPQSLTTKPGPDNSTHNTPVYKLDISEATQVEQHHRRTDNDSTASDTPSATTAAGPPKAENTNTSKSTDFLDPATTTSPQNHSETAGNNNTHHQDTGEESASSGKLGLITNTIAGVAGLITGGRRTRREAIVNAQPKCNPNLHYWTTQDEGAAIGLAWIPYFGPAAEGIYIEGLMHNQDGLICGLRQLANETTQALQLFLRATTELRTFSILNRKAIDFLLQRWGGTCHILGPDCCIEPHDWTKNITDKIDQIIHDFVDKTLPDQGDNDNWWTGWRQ
# assay_notes: ELISA

binder	EC50 (µg/mL)
EBOV63 (antibody, V domains shown) VH: EVQLVESGGGLVKPGGSLRLSCAASGFTLNFYNMNWVRQAPGKGLEWVSSISSSSNYIYYADSVKGRFTISRDNARKSLYLQMNSLRAEDTAVYYCARDFVQLLIPQRDEWQGVHDYYGMDVWGQGTLVTVSS VL: EIVLTQSPGTLSLSPGGRATLSCRASQSVSNSYLAWYQQKPGQAPRLLIYGASSRATGIPDRFSGSGSGTDFILTISRLEPEDFAVYYCQHYGSSQLTFGGGTKVEIK	0.283
